- Tested on: common (oilseed) sunflower
- protocol description: Test C pre-/postemergence herbicide test
- Format: in vivo, Helianthus annuus
- recorded conditions: 62 g ai/ha; preemergence; scale 0 to 100
result type: Plant response rating, Sunflower
Numbers only.

Solved cases below.
CCNC(=O)c1cccc(NC(=O)c2nn(C(C)(C)C)nc2C)c1: 10
C=CCNC(=O)c1cccc(NC(=O)c2sc(C(C)(C)C)nc2CC)c1: 0
CCn1nc(C2(C)CC2)cc1C(=O)Nc1cc(C(=O)N(C)C)ccc1F: 10
CC(=NO)c1cccc(NC(=O)c2sc(C(C)(C)C)nc2C)c1: 0

// input: 3 compounds below; output: Plant response rating, Sunflower for each
1. CCc1nn(C(C)(C)C)cc1C(=O)Nc1cc(C(=O)N(C)C)ccn1
2. CCn1nc(C(C)(C)C)cc1C(=O)Nc1cccc(OC(F)F)c1
3. C=CCNC(=O)c1cccc(NC(=O)c2nn(C(C)(C)C)nc2CC)c1

Result:
[10, 0, 0]

----------
- System: ducksalad
- protocol description: Test B flooded paddy test
- Assay type: in vivo, Heteranthera limosa
- recorded conditions: 1000 g ai/ha, scale 0 to 100 (0 no effect, 100 complete control)
result type: Ducksalad plant response rating
One number for each entry.

Solved cases below.
CCNC(=O)c1cccc(NC(=O)c2nn(C(C)(C)C)nc2C)c1: 80
CCn1nc(C(C)(C)C)cc1C(=O)Nc1cc(OC)ccc1OC: 30
CCOC(=O)c1ccc(F)c(NC(=S)c2cc(C(C)(C)C)nn2CC)c1: 60

// input: 5 compounds below; output: Ducksalad plant response rating for each
1. CCn1nc(C2(C)CC2)cc1C(=O)Nc1cccc(C(=O)N(C)C)c1
2. CCn1nc(C(C)(C)C)cc1C(=O)Nc1cncc(C(=O)N(C)C)c1
3. CCN(C)C(=O)c1cncc(NC(=O)c2cc(C(C)(C)C)nn2CC)c1
4. C=CCN(C)C(=O)c1cccc(NC(=O)c2cc(C(C)(C)C)nn2CC)c1
5. C=CCNC(=O)c1cccc(NC(=O)c2nn(C(C)(C)C)nc2CC)c1

Result:
90
90
90
90
90

// input: 4 compounds below; output: Ducksalad plant response rating for each
1. CCn1nc(C(C)(C)C)cc1C(=O)Nc1cccc(OC(F)F)c1
2. Cc1nn(C(C)(C)C)nc1C(=O)Nc1cccc(C(=O)N2CC=CC2)c1
3. CCOC(=O)c1ccc(F)c(NC(=O)C2CN(C(C)(C)C)N=C2CC)c1 (racemic)
4. Cc1nn(C(C)C)nc1C(=O)Nc1cccc(C(=O)N(C)C)c1

Result:
[90, 90, 90, 90]

// input: 6 compounds below; output: Ducksalad plant response rating for each
1. CCOC(=O)c1cccc(NC(=O)c2cc(C(C)(C)C)nn2C)n1
2. Cc1nn(C(C)C)nc1C(=O)Nc1cc(C(=O)N(C)C)ccc1F
3. CCn1nc(C(C)(C)C)cc1C(=O)Nc1cccc(C(=O)N2CCOCC2)n1
4. CCn1nc(C(C)(C)C)cc1C(=S)Nc1cc(C(=S)N(C)C)ccc1F
5. CCOC(=O)c1ccc(F)c(NC(=O)c2nn(C(C)(C)CC)nc2CC)c1
6. CCOC(=O)c1cncc(NC(=O)c2nn(C(C)(C)C)nc2C)c1

Result:
1. 80
2. 20
3. 80
4. 80
5. 0
6. 20
